B1: C2orf65 (parent)
chain: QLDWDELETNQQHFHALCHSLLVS

Variants of: B1
Experiment: protein stability index of a GFP-peptide fusion (GPS, HEK-293T) (PSI 1-6); higher = more stable;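 also: lentivirally expressed fusions sorted by FACS into six bins by GFP to DsRed ratio, PSI derived from sequencing read proportions per bin multiplied by bin number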
Conditions: c terminus: a fixed tail appended
Class label 1: protein stability index at least 2. Class label 0: protein stability index below 2.

q: Is protein stability index at least 2? Consider QLDWDELETNQQHFHALLHSLLVS [C18L]
a: label 0

q: Record QLDWDELETNQQHVHALCHSLLVS [F14V] ; criterion: protein stability index no lower than 2. Met?
a: label 1

q: Entry QLDWWELETNQQHFHALCHSLLVS [D5W] : is its protein stability index no less than 2?
a: label 0

q: Could you please find out whether QLDWDELETNQQHFHALCHHLLVS [S20H] has protein stability index that meets 2 or exceeds it?
a: label 1

q: Does protein stability index meet or surpass 2 for QLDWDELETNQQRFHALCHSLLVS [H13R] ?
a: label 0

q: Threshold query (protein stability index >= 2) on QLDWDELETNQQHFHALKHSLLVS [C18K]
a: label 1

q: Does protein stability index meet or surpass 2 for QLDWDELETNQQTFHALCHSLLVS [H13T] ?
a: label 1

q: Decide: protein stability index of QLDWDELETNRQHFHALCHSLLVS [Q11R] >= 2?
a: label 1

q: Is protein stability index at least 2? Consider QLDFDELETNQQHFHALCHSLLVS [W4F]
a: label 1

q: Can QLCWDELETNQQHFHALCHSLLVS [D3C] be said to have protein stability index at or above 2?
a: label 0

q: Does protein stability index meet or surpass 2 for QLDWDELNTNQQHFHALCHSLLVS [E8N] ?
a: label 1

q: Given the entry QLDWDELETNQQHFHALCESLLVS [H19E] , answer whether its protein stability index meets or surpasses 2.
a: label 1

q: # check: protein stability index of QLDGDELETNQQHFHALCHSLLVS [W4G] is greater than or equal to 2
a: label 1

q: # check: protein stability index of QLVWDELETNQQHFHALCHSLLVS [D3V] is greater than or equal to 2
a: label 0

q: Please tell me: is the variant QLDWDELETNQQHFHALCCSLLVS [H19C] at or over 2 in terms of protein stability index?
a: label 1

q: Assess whether reported protein stability index for QLDWDELETNQAHFHALCHSLLVS [Q12A] sits at 2 or higher.
a: label 0

q: Quick check: does QLDWDELETLQQHFHALCHSLLVS [N10L] have protein stability index greater than or equal to 2?
a: label 0

q: Evaluate QLDWDELETNQQHFWALCHSLLVS [H15W] : protein stability index at minimum 2?
a: label 0

q: Given the entry QLDWDELETNQQHFHALYHSLLVS [C18Y] , answer whether its protein stability index meets or surpasses 2.
a: label 1

q: Check if protein stability index >= 2 (inclusive). Item: QLDWDELWTNQQHFHALCHSLLVS [E8W]
a: label 1

q: Given QLDWDELETNQQHFHYLCHSLLVS [A16Y] , state whether its protein stability index is at least 2.
a: label 1

q: Hello, I need to know if QLDWDELFTNQQHFHALCHSLLVS [E8F] has measured protein stability index not below 2. Thanks!
a: label 0

q: Record QLDWDELETNQQHFHAACHSLLVS [L17A] ; criterion: protein stability index no lower than 2. Met?
a: label 1

q: # bool: protein stability index of QLDWDELETFQQHFHALCHSLLVS [N10F] >= 2
a: label 0

q: Say whether QLDWDELETNQQHFRALCHSLLVS [H15R] shows protein stability index of 2 or more.
a: label 0

q: Answer whether protein stability index of QLDWDELPTNQQHFHALCHSLLVS [E8P] is greater than or equal to 2.
a: label 0

q: Reported protein stability index reaches at least 2 for QLDWDELEDNQQHFHALCHSLLVS [T9D] ?
a: label 1

q: Please tell me: is the variant QLDWDELETNQQHFHALDHSLLVS [C18D] at or over 2 in terms of protein stability index?
a: label 1

q: Is the recorded value of protein stability index equal to or greater than 2 for this variant? QLDWDEIETNQQHFHALCHSLLVS [L7I]
a: label 0

q: Exam item: decide whether the reported protein stability index for QLDWDELETNQQHFHALPHSLLVS [C18P] is at least 2.
a: label 1

q: Does QLDWDELETNQQHFHALCHRLLVS [S20R] have a reported protein stability index of at least 2?
a: label 0

q: Please check the record QLDWDELETNQQHFCALCHSLLVS [H15C] and state if its protein stability index is at or above 2.
a: label 0

q: Please indicate if the recorded protein stability index for QLDWDNLETNQQHFHALCHSLLVS [E6N] meets or exceeds 2.
a: label 0

q: protein stability index >= 2 for QLDWDEWETNQQHFHALCHSLLVS [L7W] ?
a: label 0

q: Would you say QNDWDELETNQQHFHALCHSLLVS [L2N] shows protein stability index at minimum 2?
a: label 1

q: # bool: protein stability index of QLDWDELETNQQHFHALCHDLLVS [S20D] >= 2
a: label 1

q: Test whether the variant PLDWDELETNQQHFHALCHSLLVS [Q1P] records protein stability index of 2 or higher.
a: label 1

q: Test whether the variant QLDWDILETNQQHFHALCHSLLVS [E6I] records protein stability index of 2 or higher.
a: label 0

q: Please indicate if the recorded protein stability index for QLDWDELETNQEHFHALCHSLLVS [Q12E] meets or exceeds 2.
a: label 1

q: Reported protein stability index reaches at least 2 for QLDWDELETNQQYFHALCHSLLVS [H13Y] ?
a: label 1

q: Is the recorded value of protein stability index equal to or greater than 2 for this variant? QLDWDELETVQQHFHALCHSLLVS [N10V]
a: label 0

q: Decide: protein stability index of QLDWDETETNQQHFHALCHSLLVS [L7T] >= 2?
a: label 1

q: Check this variant for protein stability index at or above 2: QLDWDELKTNQQHFHALCHSLLVS [E8K]
a: label 0

q: Hi team, for QLDWDELETNQTHFHALCHSLLVS [Q12T] , is the recorded protein stability index at or above 2?
a: label 1

q: For this variant, is measured protein stability index 2 or higher? QLDWDELETNQQHFHAQCHSLLVS [L17Q]
a: label 1

q: Can QLDWDELETNQQHFHALCWSLLVS [H19W] be said to have protein stability index at or above 2?
a: label 0

q: Kindly determine if protein stability index recorded for QLDWDELETNQNHFHALCHSLLVS [Q12N] is above or exactly 2.
a: label 1

q: For this variant, is measured protein stability index 2 or higher? QLDWDELETNQQHFHALCFSLLVS [H19F]
a: label 0

q: Given QLDWDELETNQQQFHALCHSLLVS [H13Q] , state whether its protein stability index is at least 2.
a: label 1

q: Say whether QLDWDELETNQQHFHAECHSLLVS [L17E] shows protein stability index of 2 or more.
a: label 1

q: Hi, just wondering whether QLDVDELETNQQHFHALCHSLLVS [W4V] shows protein stability index of 2 or higher.
a: label 1

q: Does QLDWDEYETNQQHFHALCHSLLVS [L7Y] have a reported protein stability index of at least 2?
a: label 1

q: Does the reported protein stability index for QLWWDELETNQQHFHALCHSLLVS [D3W] fall at or above the 2 mark?
a: label 1

q: Is reported protein stability index greater than or equal to 2 here: QWDWDELETNQQHFHALCHSLLVS [L2W]
a: label 0

q: Kindly determine if protein stability index recorded for QLDWDELETNQQHFHALCLSLLVS [H19L] is above or exactly 2.
a: label 0

q: # bool: protein stability index of QLDWDELETNQWHFHALCHSLLVS [Q12W] >= 2
a: label 1

q: In plain terms: is recorded protein stability index at least 2 for QLDWDELETNQQHAHALCHSLLVS [F14A] ?
a: label 1

q: Decide: protein stability index of ILDWDELETNQQHFHALCHSLLVS [Q1I] >= 2?
a: label 0

q: # check: protein stability index of QGDWDELETNQQHFHALCHSLLVS [L2G] is greater than or equal to 2
a: label 1

q: Quick check: does QLDWDELETCQQHFHALCHSLLVS [N10C] have protein stability index greater than or equal to 2?
a: label 0

q: Does QLDWDVLETNQQHFHALCHSLLVS [E6V] have a reported protein stability index of at least 2?
a: label 1

q: Item QLDWDELETNQQAFHALCHSLLVS [H13A] with protein stability index of 2 or above?
a: label 1

q: Hello, I need to know if QLDWDELETNQQHGHALCHSLLVS [F14G] has measured protein stability index not below 2. Thanks!
a: label 1

q: Check if protein stability index >= 2 (inclusive). Item: QLDWDELETNQQHFHAHCHSLLVS [L17H]
a: label 1

q: Dear colleague, could you confirm whether QLDWDELETNQQCFHALCHSLLVS [H13C] has protein stability index at or above 2?
a: label 1

q: Hi, just wondering whether QLDWDELETNQQHFHANCHSLLVS [L17N] shows protein stability index of 2 or higher.
a: label 1

Hello, the source for this data is the supplement of paper PMC10567573, in case you need it.
